- SUBJECT OF TEST: integrin α4β1 (RAMOS human cells adhering to VCAM-1) (Homo sapiens, UniProt P05556+P13612)
- Construct: Ramos cells, which express integrin α4β1; host or cells: RAMOS
- Sequence (P13612 34-1032): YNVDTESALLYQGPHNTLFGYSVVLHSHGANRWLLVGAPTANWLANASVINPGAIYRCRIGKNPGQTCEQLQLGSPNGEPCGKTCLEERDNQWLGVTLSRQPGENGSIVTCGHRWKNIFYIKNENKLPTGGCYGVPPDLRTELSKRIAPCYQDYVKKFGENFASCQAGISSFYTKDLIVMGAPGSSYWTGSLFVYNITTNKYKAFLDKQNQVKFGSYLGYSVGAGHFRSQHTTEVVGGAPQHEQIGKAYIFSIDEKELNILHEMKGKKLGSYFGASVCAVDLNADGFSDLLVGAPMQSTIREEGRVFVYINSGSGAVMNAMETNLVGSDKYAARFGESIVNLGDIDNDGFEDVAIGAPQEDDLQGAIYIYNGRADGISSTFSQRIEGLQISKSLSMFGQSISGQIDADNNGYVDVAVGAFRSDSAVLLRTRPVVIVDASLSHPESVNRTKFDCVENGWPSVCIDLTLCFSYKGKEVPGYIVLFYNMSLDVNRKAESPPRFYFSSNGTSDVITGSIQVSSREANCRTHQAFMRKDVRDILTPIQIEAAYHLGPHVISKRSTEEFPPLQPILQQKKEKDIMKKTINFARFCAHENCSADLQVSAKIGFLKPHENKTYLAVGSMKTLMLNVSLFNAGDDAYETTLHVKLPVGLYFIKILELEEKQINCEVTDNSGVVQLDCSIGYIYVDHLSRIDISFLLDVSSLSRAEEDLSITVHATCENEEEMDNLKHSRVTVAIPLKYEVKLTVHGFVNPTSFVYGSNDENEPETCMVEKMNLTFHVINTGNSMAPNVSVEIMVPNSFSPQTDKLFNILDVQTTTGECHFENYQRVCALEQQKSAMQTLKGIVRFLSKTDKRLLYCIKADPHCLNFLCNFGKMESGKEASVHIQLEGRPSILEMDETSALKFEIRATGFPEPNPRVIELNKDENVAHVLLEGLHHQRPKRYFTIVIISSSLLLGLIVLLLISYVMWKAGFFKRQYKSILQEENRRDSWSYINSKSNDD
- Sequence (P05556 21-798): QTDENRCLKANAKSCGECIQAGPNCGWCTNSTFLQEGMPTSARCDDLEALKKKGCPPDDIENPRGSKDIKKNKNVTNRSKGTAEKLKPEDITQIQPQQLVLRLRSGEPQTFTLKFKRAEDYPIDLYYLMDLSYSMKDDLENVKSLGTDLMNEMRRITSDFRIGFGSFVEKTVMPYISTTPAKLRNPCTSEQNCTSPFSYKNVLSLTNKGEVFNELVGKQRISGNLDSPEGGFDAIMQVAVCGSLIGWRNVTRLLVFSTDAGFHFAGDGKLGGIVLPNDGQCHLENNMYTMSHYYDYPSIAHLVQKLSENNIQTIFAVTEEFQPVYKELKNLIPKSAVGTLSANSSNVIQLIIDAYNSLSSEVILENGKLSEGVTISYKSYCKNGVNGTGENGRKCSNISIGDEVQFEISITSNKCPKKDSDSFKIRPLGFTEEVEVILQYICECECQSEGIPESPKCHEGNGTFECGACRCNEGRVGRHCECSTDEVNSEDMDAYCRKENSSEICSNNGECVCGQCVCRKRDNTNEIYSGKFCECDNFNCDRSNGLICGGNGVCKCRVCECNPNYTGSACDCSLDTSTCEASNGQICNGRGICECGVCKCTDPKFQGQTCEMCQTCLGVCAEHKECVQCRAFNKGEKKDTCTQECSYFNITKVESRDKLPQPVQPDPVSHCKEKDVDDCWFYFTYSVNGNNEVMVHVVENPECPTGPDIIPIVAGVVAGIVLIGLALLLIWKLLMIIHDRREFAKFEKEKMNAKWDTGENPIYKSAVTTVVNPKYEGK
- ASSAY COMMENT: Integrin α4β1-VCAM cell adhesion assay (RAMOS cells)
- Type: cell-based
- CONDITION: ratio of cell adhesion IC50s, Ramos α4β1/VCAM over RPMI8866 α4β7/MAdCAM
PARAMETER MEASURED: Ratio Ramos/RPMI
One number for each entry.

Guide cases for Ratio Ramos/RPMI, answers given:
ITEM SMILES: CC(C)C[C@@H]1NC(=O)c2ccc(-c3ccc(N4CCN(C(=O)COCC(=O)N5CCN(c6ccc(-c7ccc8cc7CNC(=O)[C@@H]7CCCN7[C@H](C(=O)NC(C)(C)C)[C@H](C)NC(=O)[C@H]([C@@H](C)O)NC(=O)[C@H](CC(=O)O)NC(=O)[C@H](CC(C)C)NC8=O)cc6)CC5)CC4)cc3)c(c2)CNC(=O)[C@@H]2CCCN2[C@H](C(=O)NC(C)(C)C)[C@H](C)NC(=O)[C@H]([C@@H](C)O)NC(=O)[C@H](CC(=O)O)NC1=O
REPORTED: 66
//
ITEM SMILES: CC(C)C[C@@H]1NC(=O)c2ccc(-c3ccc(N4CCN(C(=O)c5nccnc5C(=O)N5CCN(c6ccc(-c7ccc8cc7CNC(=O)[C@@H]7CCCN7[C@H](C(=O)NC(C)(C)C)[C@H](C)NC(=O)[C@H]([C@@H](C)O)NC(=O)[C@H](CC(=O)O)NC(=O)[C@H](CC(C)C)NC8=O)cc6)CC5)CC4)cc3)c(c2)CNC(=O)[C@@H]2CCCN2[C@H](C(=O)NC(C)(C)C)[C@H](C)NC(=O)[C@H]([C@@H](C)O)NC(=O)[C@H](CC(=O)O)NC1=O
REPORTED: 20
//
ITEM SMILES: CC(C)C[C@@H]1NC(=O)c2ccc(-c3ccc(N4CCN(C(=O)c5ccc(-c6cccc(C(=O)N7CCN(c8ccc(-c9ccc%10cc9CNC(=O)[C@@H]9CCCN9[C@H](C(=O)NC(C)(C)C)[C@H](C)NC(=O)[C@H]([C@@H](C)O)NC(=O)[C@H](CC(=O)O)NC(=O)[C@H](CC(C)C)NC%10=O)cc8)CC7)n6)nc5)CC4)cc3)c(c2)CNC(=O)[C@@H]2CCCN2[C@H](C(=O)NC(C)(C)C)[C@H](C)NC(=O)[C@H]([C@@H](C)O)NC(=O)[C@H](CC(=O)O)NC1=O
REPORTED: 34
//
ITEM SMILES: CC(C)C[C@@H]1NC(=O)C[C@H](CCCCN)N(C)C(=O)[C@H](CCCCNC(=O)CCCCCCCCC(=O)NCCCC[C@@H]2NC(=O)[C@@H]3CCCN3[C@H](C(=O)NC(C)(C)C)[C@H](C)NC(=O)[C@H]([C@@H](C)O)NC(=O)[C@H](CC(=O)O)NC(=O)[C@H](CC(C)C)NC(=O)C[C@H](CCCCN)N(C)C2=O)NC(=O)[C@@H]2CCCN2[C@H](C(=O)NC(C)(C)C)[C@H](C)NC(=O)[C@H]([C@@H](C)O)NC(=O)[C@H](CC(=O)O)NC1=O
REPORTED: 704
//
ITEM SMILES: CC(C)C[C@@H]1NC(=O)c2ccc(-c3ccc(N4CCN(Cc5ccc(CN6CCN(c7ccc(-c8ccc9cc8CNC(=O)[C@@H]8CCCN8[C@H](C(=O)NC(C)(C)C)[C@H](C)NC(=O)[C@H]([C@@H](C)O)NC(=O)[C@H](CC(=O)O)NC(=O)[C@H](CC(C)C)NC9=O)cc7)CC6)cc5)CC4)cc3)c(c2)CNC(=O)[C@@H]2CCCN2[C@H](C(=O)NC(C)(C)C)[C@H](C)NC(=O)[C@H]([C@@H](C)O)NC(=O)[C@H](CC(=O)O)NC1=O
REPORTED: 31
//
ITEM SMILES: CC(C)C[C@@H]1NC(=O)c2ccc(-c3ccc(N4CCN(c5ncc([N+](=O)[O-])c(N6CCN(c7ccc(-c8ccc9cc8CNC(=O)[C@@H]8CCCN8[C@H](C(=O)NC(C)(C)C)[C@H](C)NC(=O)[C@H]([C@@H](C)O)NC(=O)[C@H](CC(=O)O)NC(=O)[C@H](CC(C)C)NC9=O)cc7)CC6)n5)CC4)cc3)c(c2)CNC(=O)[C@@H]2CCCN2[C@H](C(=O)NC(C)(C)C)[C@H](C)NC(=O)[C@H]([C@@H](C)O)NC(=O)[C@H](CC(=O)O)NC1=O
REPORTED: 51
//
ITEM SMILES: CC(C)C[C@@H]1NC(=O)c2ccc(-c3ccc(N4CCN(C(=O)[C@H]5CCC[C@H]5C(=O)N5CCN(c6ccc(-c7ccc8cc7CNC(=O)[C@@H]7CCCN7[C@H](C(=O)NC(C)(C)C)[C@H](C)NC(=O)[C@H]([C@@H](C)O)NC(=O)[C@H](CC(=O)O)NC(=O)[C@H](CC(C)C)NC8=O)cc6)CC5)CC4)cc3)c(c2)CNC(=O)[C@@H]2CCCN2[C@H](C(=O)NC(C)(C)C)[C@H](C)NC(=O)[C@H]([C@@H](C)O)NC(=O)[C@H](CC(=O)O)NC1=O
REPORTED: 23
//
ITEM SMILES: CC(C)C[C@@H]1NC(=O)c2ccc(-c3ccc(N4CCN(C(=O)CCOCCOCCNC(=O)CCCCCC(=O)NCCOCCOCCC(=O)N5CCN(c6ccc(-c7ccc8cc7CNC(=O)[C@@H]7CCCN7[C@H](C(=O)NC(C)(C)C)[C@H](C)NC(=O)[C@H]([C@@H](C)O)NC(=O)[C@H](CC(=O)O)NC(=O)[C@H](CC(C)C)NC8=O)cc6)CC5)CC4)cc3)c(c2)CNC(=O)[C@@H]2CCCN2[C@H](C(=O)NC(C)(C)C)[C@H](C)NC(=O)[C@H]([C@@H](C)O)NC(=O)[C@H](CC(=O)O)NC1=O
REPORTED: 30

Turning to the following compound.
[Q] For the compound shown here, CC(C)C[C@@H]1NC(=O)c2ccc(-c3ccc(N4CCN(CC(=O)N5CCN(c6ccc(-c7ccc8cc7CNC(=O)[C@@H]7CCCN7[C@H](C(=O)NC(C)(C)C)[C@H](C)NC(=O)[C@H]([C@@H](C)O)NC(=O)[C@H](CC(=O)O)NC(=O)[C@H](CC(C)C)NC8=O)cc6)CC5)CC4)cc3)c(c2)CNC(=O)[C@@H]2CCCN2[C@H](C(=O)NC(C)(C)C)[C@H](C)NC(=O)[C@H]([C@@H](C)O)NC(=O)[C@H](CC(=O)O)NC1=O , give the reported Ratio Ramos/RPMI.
[A] 26
